measurementDescription: Growth inhibition of human HeLa cells by MTT assay
Format: cell-based
recordedConditions: HeLa cells
readout: GI50 (µg/mL)
State the answer as a number, implicitly in µg/mL.

Consider the following illustrative entries.
> print(dat)
                          chemicalstructure  quantitativereadout
1  Cc1nc(-c2ccc(F)cc2)oc1-c1csc(Cc2ccccc2)n1                  148
2  Cc1nc(-c2ccccc2)oc1-c1csc(Cc2cccc(Cl)c2)n1                 68.7

Now for the molecule whose GI50 we want.
The recorded GI50 for Cc1nc(-c2ccc(F)cc2)oc1-c1csc(Cc2ccc(F)cc2)n1 is 94.9

----------
System: Staphylococcus aureus
measurementDescription: Growth inhibition of Staphylococcus aureus NCIM 2602 at 1 ug/ml measured after 12 hrs relative to control
Format: functional
recordedConditions: NCIM 2602, 12 h, read-out: GI
readout: inhibition of growth at 1 µg/mL (%)
State the answer as a number, implicitly in %.

> print(dat)
                        chemicalstructure            assaysystem  quantitativereadout
1  Cc1nc(-c2ccccc2)oc1-c1csc(-c2ccccc2)n1  Staphylococcus aureus                 85.7

Note to self: inhibition of growth at 1 µg/mL of Cc1nc(-c2ccccc2)oc1-c1csc(-c2ccc(Cl)cc2)n1 with Staphylococcus aureus was 12.8

Note to self: inhibition of growth at 1 µg/mL of Cc1nc(-c2ccccc2)oc1-c1csc(-c2cccc(Cl)c2)n1 with Staphylococcus aureus was 20.5

Note to self: inhibition of growth at 1 µg/mL of Cc1nc(-c2ccc(F)cc2)oc1-c1csc(Cc2ccccc2)n1 with Staphylococcus aureus was 93.9

Note to self: inhibition of growth at 1 µg/mL of Cc1nc(-c2ccc(F)cc2)oc1-c1csc(-c2ccccc2)n1 with Staphylococcus aureus was 24

Note to self: inhibition of growth at 1 µg/mL of Cc1nc(-c2ccccc2)oc1-c1csc(-c2ccc(F)c(Cl)c2)n1 with Staphylococcus aureus was 70.9

Note to self: inhibition of growth at 1 µg/mL of Cc1nc(-c2ccc(F)cc2)oc1-c1csc(-c2ccc(Cl)cc2)n1 with Staphylococcus aureus was 8.6

Note to self: inhibition of growth at 1 µg/mL of Cc1ccc(-c2nc(-c3oc(-c4ccc(F)cc4)nc3C)cs2)cc1 with Staphylococcus aureus was 6.75

Note to self: inhibition of growth at 1 µg/mL of Cc1nc(-c2ccc(F)cc2)oc1-c1csc(-c2ccc(Br)cc2)n1 with Staphylococcus aureus was 44.1

Note to self: inhibition of growth at 1 µg/mL of Cc1nc(-c2ccc(F)cc2)oc1-c1csc(Cc2cccc(Cl)c2)n1 with Staphylococcus aureus was 71.7

Note to self: inhibition of growth at 1 µg/mL of Cc1nc(-c2ccc(F)cc2)oc1-c1csc(Cc2ccc(F)cc2)n1 with Staphylococcus aureus was 80

----------
Tested on: HeLa
measurementDescription: Growth inhibition of human HeLa cells by MTT assay
Assay type: cell-based
recordedConditions: hela
readout: GI90

chemicalStructure	assaySystem	readout	result
Cc1nc(-c2ccccc2)oc1-c1csc(-c2ccccc2)n1	HeLa	GI90	> 250 µg/mL
Cc1nc(-c2ccccc2)oc1-c1csc(Cc2cccc(Cl)c2)n1	HeLa	GI90	> 250 µg/mL
Cc1nc(-c2ccccc2)oc1-c1csc(Cc2ccc(Cl)cc2)n1	HeLa	GI90	> 250 µg/mL

The recorded GI90 for Cc1nc(-c2ccc(F)cc2)oc1-c1csc(Cc2cccc(Cl)c2)n1 is > 250 µg/mL

The recorded GI90 for Cc1nc(-c2ccc(F)cc2)oc1-c1csc(Cc2ccccc2)n1 is 248.63 µg/mL

The recorded GI90 for CC(=O)O[C@H]1C(=O)[C@@]2(C)[C@H]([C@H](OC(=O)c3ccccc3)[C@]3(O)C[C@H](OC(=O)[C@H](O)[C@@H](NC(=O)c4ccccc4)c4ccccc4)C(C)=C1C3(C)C)[C@]1(OC(C)=O)CO[C@@H]1C[C@@H]2O is 0.075 µg/mL

The recorded GI90 for CO[C@H]1/C=C/O[C@@]2(C)Oc3c(C)c(O)c4c(O)c(c(/C=N/N5CCN(C)CC5)c(O)c4c3C2=O)NC(=O)/C(C)=C\C=C\[C@H](C)[C@H](O)[C@@H](C)[C@@H](O)[C@@H](C)[C@H](OC(C)=O)[C@@H]1C is > 100 µg/mL

The recorded GI90 for Cc1nc(-c2ccc(F)cc2)oc1-c1csc(Cc2ccc(F)cc2)n1 is > 250 µg/mL

Cited source: ChEMBL document CHEMBL4024727
